Reference source: patent US20260184814A1

biological target: N2 neuraminidase from A/Leningrad/134/17/57 (Influenza A virus A/Leningrad/134/17/57, UniProt Q67214 1-469); assay: flow cytometry, NA on cells
Sequence (Q67214 whole entry): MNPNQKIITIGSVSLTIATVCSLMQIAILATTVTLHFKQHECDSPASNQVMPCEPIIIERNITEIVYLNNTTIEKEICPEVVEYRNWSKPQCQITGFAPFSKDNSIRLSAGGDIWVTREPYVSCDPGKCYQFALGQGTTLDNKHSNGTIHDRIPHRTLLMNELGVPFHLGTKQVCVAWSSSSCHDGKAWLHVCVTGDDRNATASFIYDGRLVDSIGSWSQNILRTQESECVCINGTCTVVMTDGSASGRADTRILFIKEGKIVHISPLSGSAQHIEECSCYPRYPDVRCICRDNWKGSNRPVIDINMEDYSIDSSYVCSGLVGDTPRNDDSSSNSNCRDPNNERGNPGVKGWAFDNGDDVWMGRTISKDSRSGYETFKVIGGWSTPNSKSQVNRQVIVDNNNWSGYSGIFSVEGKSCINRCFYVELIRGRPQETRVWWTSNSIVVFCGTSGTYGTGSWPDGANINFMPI
observedProperty: binding result

v4.1 (antibody, V domains shown) VH: QVHLVQSGAEVKEPGSSVTVSCKASGGSFSNQAISWVRQAPGQGLEWMGGIFPISGTPTSAQRFQGRVTFTADESTTTVYMDLSSLRSDDTAVYYCARAGSDYFNRDLGWENYYFASWGQGTLVTVSS VL: EIVMTQSPATLSLSSGERATLSCRASRSVSSNLAWYQQKPGQAPRLLIYDASTRATGFSARFAGSGSGTEFTLTISSLQSEDSAIYYCQQYNNWPPWTFGQGTKVEIK: binds
v9.1 (antibody, V domains shown) VH: QVHLVQSGAEVKEPGSSVTVSCKASGGSFNNQAISWVRQAPGQGLEWMGGIFPISGTATSAQRFQGRVTITADESTTTVYMDLSSLRSDDTAVYYCARAGSDYFNRDLGWENYYFASWGQGTLVTVSS VL: EIVMTQSPATLSLSSGERATLSCRASRSVSSNLAWYQQKPGQAPRLLIYDASTRATGFSARFAGSGSGTEFTLTISSLQSEDSAIYYCQQYNNWPPWTFGQGTKVEIK: binds
v7.1 (antibody, V domains shown) VH: QVHLVQSGAEVKEPGSSVTVSCKASGGSFNNQAISWVRQAPGQGLEWMGGIFPISGTPTSAQRFQGRVTFTADESTTTVYMDLSSLRSDDTAVYYCARAGSDYFNRDLGWEQYYFASWGQGTLVTVSS VL: EIVMTQSPATLSLSSGERATLSCRASRSVSSNLAWYQQKPGQAPRLLIYDASTRATGFSARFAGSGSGTEFTLTISSLQSEDSAIYYCQQYNNWPPWTFGQGTKVEIK: binds
